Origin of values: PubChem BioAssay (NCI)

Tested on: SF-268 CNS
assay details: NCI tumour cell line growth inhibition, 48 h; in the data active = GI50 below about 0.43 µM; inactive = the rest
The reply should name one outcome from active, inactive

These recorded examples may help you get a feel for the data.
INSERT INTO results (molecule, assigned_category) VALUES
  ('COc1cc2c3c(n(CCCN=[N+]=[N-])c(=O)c2cc1OC)-c1ccccc1C3=O', 'inactive'),
  ('COc1ccc(-c2cnc(-c3ccc(OC)cc3)n2-c2cc(OC)c(OC)c(OC)c2)cc1', 'inactive'),
  ('O=C1CN=C(c2ccc[nH]2)c2cc(Cl)ccc2N1', 'inactive'),
  ('ClCc1ccccc1Cn1cnc2nc(Cl)nc(Cl)c21', 'active'),
  ('COc1ccc(C2c3ccc4ccccc4c3Oc3ncn(CCCn4ccnc4)c(=N)c32)cc1OC (centres undefined)', 'inactive'),
  ('COc1cc2c(cc1OC)[C@@H]1C(=O)c3ccc4c(c3O[C@@H]1CO2)C[C@H](C(C)C)O4', 'inactive'),
  ('CCOc1ccc(-c2nc3ccc(-c4nc5ccc(N6CCN(C)CC6)cc5[nH]4)cc3[nH]2)cc1', 'active'),
  ('CC[C@]12CN3CCc4c([nH]c5ccccc45)[C@@](C(=O)OC)(c4cc5c(cc4OC)N(C)[C@H]4[C@@](O)(C(=O)OC)[C@H](OC(C)=O)[C@]6(CC)C=CCN7CC[C@]54[C@@H]76)CC(C3)[C@H]1O2 (some centres undefined)', 'active');

Please examine the following record next.
Incoming: For `OCc1ccc(-c2nc(-c3ccc4c(c3)OCO4)c(-c3ccccn3)[nH]2)cc1` , which call appears in the assay record?
Outgoing: inactive
